From: PubChem BioAssay (NCI)

Test: NCI Yeast Anticancer Drug Screen. Data for the bub3 strain (AID 167)
Conditions: S. cerevisiae bub3 mutant strain, at 11.0 µM, active compounds read high
This is part of a sample that, as a whole, favours compounds with a hit. Of some 79,000 tested, about 15% had one in any assay.
observable: growth inhibition (%)
Numbers only, in %.

Some entries whose results are on file:
Task: Given the entry CC(C(=O)N1C(=O)N(C(=O)C(C)C(O)c2ccccc2)C2CCCCC21)C(O)c1ccccc1 (configuration not stated) , report its measured growth inhibition.
Output: -2

Task: Any idea what its growth inhibition is? The molecule is Cc1ccc(NC(=O)CCC(=O)C(C)C(=O)c2ccccc2)c(C)c1 (configuration not stated)
Output: -2

Batch lookup, growth inhibition per entry.
1. O=C(/N=N/C(=O)Oc1ccccc1)Oc1ccccc1
2. Nc1cc(Cl)ccc1Nc1ccccc1
3. CCN(CC)CCC(=O)Nc1ccc2sc3ccccc3c(=O)c2n1
4. O=[N+]([O-])c1cc[n+]([O-])c(Cl)c1
5. CCCCCCC1OCC(O)C(OCCCC)O1 (configuration not stated)
6. CC1(C)CC(=O)C(C(=O)Nc2cccs2)=C(O)C1
7. O=C1C2=C(c3ccccc31)C(c1ccccc1)N1C(=O)CSC1=N2 (configuration not stated)

Output:
[-17, -24, -3, -8, -8, 41, 15]

* * *

Experiment: NCI Yeast Anticancer Drug Screen. Data for the CLN2oe strain (AID 163);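 note: 0% = growth of vehicle-only control cultures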
Settings: S. cerevisiae CLN2oe strain, at 11.0 µM, active compounds read high
Protocol: Growth inhibition of yeast strains with defined genetic alterations is measured as a screen for potential anti-cancer activity. Selected strains with alterations in DNA damage repair or cell cycle control were exposed to compounds and growth inhibition was measured relative to vehicle treated controls. The strain used in this assay is CLN2oe
Compounds without any hit were thinned out: in the full panel of roughly 79,000, 15% have a hit.
observable: growth inhibition (%)
Answers are plain numbers, in %.

Use the examples below as a reference point.
Task: Recorded growth inhibition for CCOC(=O)Nc1ccc(C)c(NC(=O)OCC)c1 , please?
Output: 23

Task: Can you share its growth inhibition? I mean this molecule: c1ccc2c(c1)ccn2CCc1c[nH]c2ccccc12
Output: 12

Task: Query (molecule): Cc1ccc(S(=O)(=O)N/N=C/C(Br)=C(/Br)C(=O)O)cc1 ; field requested: growth inhibition
Output: 21

Task: Quick check: growth inhibition of CC12CCC(CC(=O)/C1=C(/Br)I)C2(C)C (stereo unspecified) ?
Output: 2

Task: Requested read-out: growth inhibition. Entry: CCOP(=O)(OCC)/C(C#N)=C\c1cccc2ccccc12
Output: -7

# per-item lookup of growth inhibition; items listed below
1. O=[N+]([O-])c1ccc(/C=C\c2ccc3c(c2)OCO3)c([N+](=O)[O-])c1
2. O=C1Oc2ccccc2C(=O)/C1=C/N1C(=O)N/C(=C\c2ccccc2Br)C1=O
3. Cc1ccc([N+](=O)[O-])c2c(NCCC[N+](C)(C)[O-])c3ccccc3nc12
4. COC(=O)c1ccccc1N=NNc1cccc(SC)c1
5. CCCCCc1c(CCCC)c(=O)[nH]c2cc(CNCC(OC)OC)ccc12
6. C=CC(C)(C)N1C(=O)C(C(C)=O)=C(O)C1Cc1c[nH]c2ccccc12 (stereo unspecified)

Output:
1: 7; 2: 14; 3: -17; 4: -9; 5: 63; 6: -9
